Measured values drawn from PubChem BioAssay (NCATS) for this set.

test system: Tov-21-G; test: Primary qHTS to identify gynecologic anti-cancer compounds using libraries of approved drugs and bioactive compounds (AID 1345084); settings: Gynecologic cancer cell panel viability, ATPlite luminescence, 48 h; series mostly up to 57.5 µM; note: nearly all actives have a fitted effect of over 55% in size
Inconclusive results are not listed. The source made the active and inactive calls. Calls come from the whole dose curve; as a rule, active = well fitted cell-killing curve with a large enough effect; inconclusive = small, poorly fitted or top-dose-only effect, or effect the other way; inactive = flat fitted curve, though single readings scatter.
# output must be one of 1.0 = active, 0.0 = inactive

State the result this test recorded for C[C@@H](O)[C@H](NC(=O)c1ccc(C#Cc2ccc(CN3CCOCC3)cc2)cc1)C(=O)NO .
0.0

State the result this test recorded for C=C1[C@H](OC(C)=O)[C@H]2[C@@H](OC(C)=O)[C@](C)(OC(C)=O)C[C@]2(OC(C)=O)C(=O)[C@H](C)/C=C/C(C)(C)C(=O)[C@H](OC(=O)C(C)CC)[C@H]1OC(C)=O (some centres not stated) .
0.0

State the result this test recorded for N[C@H]1Cc2ccccc2N(O)C1=O .
0.0

State the result this test recorded for OC[C@H]1O[C@@H](OCCc2ccccc2)[C@H](O[C@@H]2OC[C@](O)(CO)[C@H]2O)[C@@H](O)[C@@H]1O .
0.0

State the result this test recorded for O=C(O)Cc1ccc2oc(-c3ccc(NC(=O)/C=C/c4ccc(Br)cc4)c(F)c3)nc2c1 .
0.0

State the result this test recorded for CC(C)(O)c1ccc2c(c1)C(O)C[C@H]1[C@](C)(C(=O)O)CCC[C@]21C (some centres not stated) .
0.0

State the result this test recorded for CC[C@]12C=CCN3CC[C@@]4(c5cc([C@@]6(C(=O)OC)C[C@H]7C[C@@H](C(C)(F)F)CN(Cc8c6[nH]c6ccccc86)C7)c(OC)cc5N(C)[C@H]4[C@@](O)(C(=O)OC)[C@@H]1OC(C)=O)[C@@H]32 .
1.0

State the result this test recorded for COc1cc(O)cc(C)c1C(=O)OC1C(CO)OC(OC2C(O)C(O)C(O)C(O)C2O)C(O)C1O (configuration not stated) .
0.0

State the result this test recorded for CC(C)C[C@H](CC(=O)NO)C(=O)N[C@@H](Cc1ccc2ccccc2c1)C(=O)N[C@@H](C)C(=O)NCCN .
0.0

State the result this test recorded for C=CC[C@]12C[C@@H](OC)C(=O)C(OC)=C1O[C@@H](c1cc(OC)c3c(c1)OCO3)[C@@H]2C .
0.0

State the result this test recorded for CCC(=O)O[C@H]1C(C)(C)[C@H]([C@@H](O)C(=O)OC)[C@]2(C)C(=O)[C@@]1(O)[C@H]1O[C@]13C1CC(=O)O[C@@H](c4ccoc4)[C@]1(C)CCC32 (some centres not stated) .
0.0

State the result this test recorded for CC(C)O[C@@H]1O[C@H](CO)[C@@H](O)[C@H](O)[C@H]1O .
0.0

State the result this test recorded for CC(=O)SCC(=O)c1ccc(NS(=O)(=O)c2ccc(OCCCN(C)C)cc2)nc1 .
1.0

State the result this test recorded for CC(=O)N1CCN(C(=O)Cc2ccc(Nc3ncc(F)c(Nc4ccc(C(=O)Nc5ccccc5Cl)cc4)n3)cc2)CC1 .
1.0

State the result this test recorded for COCCOc1ccc(N2CCN(CCn3ncc4c3nc(N)n3nc(-c5ccco5)nc43)CC2)cc1 .
0.0

State the result this test recorded for COc1cc(Nc2nc3c(s2)CCCC3c2ccc(F)cc2)ccc1-n1cnc(C)c1 (configuration not stated) .
0.0

State the result this test recorded for CCCn1c(=O)c2[nH]c(-c3ccc(OCC(=O)O)cc3)nc2n(CCC)c1=O .
0.0
